Hello, the source for this data is PubChem BioAssay (Tox21), in case you need it.

experiment: qHTS assay to identify small molecule antagonists of the retinoid-related orphan receptor gamma (ROR-gamma) signaling pathway - cell viability counter screen (AID 1159520); conditions: Tet-on RORgamma CHO cells viability, ATP luminescence, 16 h; series mostly up to 92.4 µM; note: % is set by controls: 0 for no effect and ±100 for the full control effect; nearly all actives have a fitted effect of over 50% in size
Inconclusive results are not listed. Active and inactive are the calls of the source. Calls come from the whole dose curve; as a rule, active = well fitted cell-killing curve with a large enough effect in the repeat runs; inconclusive = weak or mixed curves, or effect the other way; inactive = no such curve, though single readings can be large or run the other way.
RECORDED ENDPOINT: activity, negative = cytotoxicity

CN(C)c1ccc(/C=C/c2ccc([N+](=O)[O-])cc2)cc1 ... 1.18% [at 8.39 µM] (inactive)

Go through the items and report each one's activity, negative = cytotoxicity.
1. C/C=C/C(=O)CC
2. NCC(=O)O
3. O=C(O)CNCC(=O)O

Reply:
1: 4.4% [at 19 µM] (inactive); 2: -1.28% [at 19 µM] (inactive); 3: 0.267% [at 8.39 µM] (inactive)
